Procedure Details: yeast display, Sf9 membrane polyspecificity reagent, FACS + sequencing; frameworks hold sequencing errors
Readout Kind: polyreactivity (PSR sort gate)

* QVQLVESGGGLVQAGGSLRLSCAASGRTFYYYAMGWYRQAPGKERELVASISRRGGSTYYADSVKGRFTISRDNAKNTVYLQMNSLKPEDTAVYYCAASHYHGYSLGYDYWGQGTQVTVSS | high polyreactivity
* QVQLVESGGGLVQAGGSLRLSCAASGNILAWYAMGWYRQAPGKERELVADISSRGGSTYYADSVKRRFTISRDNAKYTVYLQMKSLKPEDTAVYYCAAVWYWNQDYEYWGQGTQVTVSS | low polyreactivity
* QVQLVESGGGLVQAGGSLRLSCAASGRIFGYYVMGWYRQAPGKERELVAAISRSGGSTYYADSVKGRFTISRDNAKNTVYLEMNSLKPEDTAVYYCANYSPRYPNYDYWGQGTQVTVSS | high polyreactivity
* QVQLVESGAGLVQAGGSLRLSCAASGRIFAGYAMGWYRQAPGKEMELVATISSGGSTYYADSVKGRFTISRYNAKNTVYLQMNSLKPEVTAVYYCAADNWVNDGDYCGQGTQVTVSS | low polyreactivity
* QVQLVESGGGLDQAGGSLRLTCAASGRIFGAYAMGWYRQAPGKEMELVAVISLSTGSTYYADSVKVRFTISRDNAKNTVYLQMKSLKPDDTAVYYCAVDTRFKWGWDYYYWGLGTQVTVSS | high polyreactivity
